Tested on: PXR:RXRa (NR concentration 270 nM, RXRa partner concentration 90 nM)
Experiment: PBM binding z-score (relative to random genomic background probes); higher = stronger binding; sequences stand for … in GC…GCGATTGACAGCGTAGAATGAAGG
Record form. Attribute: PBM binding z-score. Fill in for each entry.

Field: example entries. Status: answers known.
[
  {
    "sequence-code": "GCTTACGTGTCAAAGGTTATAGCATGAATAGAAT",
    "system-tested": "PXR:RXRa (NR concentration 270 nM, RXRa partner concentration 90 nM)",
    "PBM binding z-score": 2.98
  },
  {
    "sequence-code": "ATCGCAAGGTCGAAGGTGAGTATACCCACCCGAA",
    "system-tested": "PXR:RXRa (NR concentration 270 nM, RXRa partner concentration 90 nM)",
    "PBM binding z-score": 1.89
  },
  {
    "sequence-code": "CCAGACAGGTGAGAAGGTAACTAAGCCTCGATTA",
    "system-tested": "PXR:RXRa (NR concentration 270 nM, RXRa partner concentration 90 nM)",
    "PBM binding z-score": -0.327
  },
  {
    "sequence-code": "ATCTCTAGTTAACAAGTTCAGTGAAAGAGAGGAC",
    "system-tested": "PXR:RXRa (NR concentration 270 nM, RXRa partner concentration 90 nM)",
    "PBM binding z-score": 1.81
  },
  {
    "sequence-code": "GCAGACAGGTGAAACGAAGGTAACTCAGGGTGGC",
    "system-tested": "PXR:RXRa (NR concentration 270 nM, RXRa partner concentration 90 nM)",
    "PBM binding z-score": 0.0362
  }
]

Go through the list and state PBM binding z-score for each entry.
1. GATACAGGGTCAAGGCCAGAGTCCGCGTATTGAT
2. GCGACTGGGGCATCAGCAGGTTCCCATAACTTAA
3. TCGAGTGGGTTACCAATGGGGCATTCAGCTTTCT
4. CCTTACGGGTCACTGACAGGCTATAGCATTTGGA
5. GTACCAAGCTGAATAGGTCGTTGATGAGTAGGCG
6. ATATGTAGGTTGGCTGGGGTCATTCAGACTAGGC
7. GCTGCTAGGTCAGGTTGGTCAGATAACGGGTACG

[3.79, -0.549, -0.197, 2.94, -0.255, 5.98, 0.425]

Hi team, please reply with PBM binding z-score for each item in this list.
1. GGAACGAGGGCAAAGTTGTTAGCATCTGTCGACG
2. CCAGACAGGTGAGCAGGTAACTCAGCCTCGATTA
3. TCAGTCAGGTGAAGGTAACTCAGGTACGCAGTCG
4. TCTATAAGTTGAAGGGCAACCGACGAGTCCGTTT

[0.802, -0.31, 0.5, 0.812]

For every item below, please supply its PBM binding z-score.
1. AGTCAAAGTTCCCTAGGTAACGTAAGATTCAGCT
2. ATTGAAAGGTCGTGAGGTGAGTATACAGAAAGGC
3. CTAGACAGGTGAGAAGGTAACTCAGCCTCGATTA
4. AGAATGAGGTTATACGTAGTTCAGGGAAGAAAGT
5. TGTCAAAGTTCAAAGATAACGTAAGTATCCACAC
6. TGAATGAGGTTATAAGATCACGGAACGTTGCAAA
7. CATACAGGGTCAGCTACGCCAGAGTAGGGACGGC
8. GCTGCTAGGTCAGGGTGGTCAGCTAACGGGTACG

[0.00195, 3.07, -0.111, 3.07, 4.66, 1.43, 2.22, 0.451]

State the recorded PBM binding z-score for every item in the following list.
1. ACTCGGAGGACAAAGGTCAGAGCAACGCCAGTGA
2. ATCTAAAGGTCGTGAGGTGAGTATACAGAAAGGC
3. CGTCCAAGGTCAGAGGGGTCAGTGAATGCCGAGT
4. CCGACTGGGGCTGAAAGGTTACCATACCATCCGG

1: 3.99; 2: 3.4; 3: 6.03; 4: 1.1

// input: 5 sequences below; output: PBM binding z-score for each
1. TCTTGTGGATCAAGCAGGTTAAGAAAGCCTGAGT
2. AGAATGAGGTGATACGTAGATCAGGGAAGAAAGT
3. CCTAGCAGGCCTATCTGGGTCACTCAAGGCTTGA
4. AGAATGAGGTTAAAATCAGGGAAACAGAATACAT
5. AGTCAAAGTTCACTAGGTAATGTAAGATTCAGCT

1: 0.422; 2: -0.029; 3: 0.789; 4: 1.17; 5: 4.01
